Assay: HPLC-assay for in-use stability after reconstitution with 4.2% sodium hydrogen carbonate solution (Example 2, peptides SEQ ID NO 1-10)
Type: physicochemical
Conditions: +mannitol/lutrol; 4 h after reconstitution
Protocol: Resolubilization procedure: For clinical trials the above described formulation is dissolved in 700 μl sodium hydrogen carbonate (4.2%). Remove plastic cap from one vial. Unpack and remove sodium hydrogen carbonate (4.2%) from the refrigerator at least 30 min before resolubilization to bring them up to room temperature before injection. Prepare syringe and needle for reconstitution. […] Identity, purity and peptide content are determined by analytical RP-HPLC chromatography. […]
Please respond with reported in-use stability, peptide by HPLC-assay for every item in the list.
One number for each entry, in %.

# residue_sequence, in-use stability, peptide by HPLC-assay (%)
records = [
    ("VMAGDIYSV (listed as Homo sapiens) [ADF-002, Adipophilin tumour-associated peptide]", 101.2),
    ("YVDPVITSI (listed as Homo sapiens) [MET-001, c-met proto-oncogene tumour-associated peptide]", 101.1),
    ("SVFAGVVGV (listed as Homo sapiens) [GUC-001, GUCY1A3 tumour-associated peptide]", 100.8),
    ("ALFDGDPHL (listed as Homo sapiens) [K67-001, KIAA0367 tumour-associated peptide]", 101.8),
    ("SQDDIKGIQKLYGKRS (listed as Homo sapiens) [MMP-001, Matrix metalloproteinase 7 tumour-associated peptide]", 100.4),
    ("LLGATCMFV (listed as Homo sapiens) [CCN-001, Cyclin D1 tumour-associated peptide]", 89.2),
    ("LAALPHSCL (listed as Homo sapiens) [RGS-001, RGS-5 tumour-associated peptide]", 91.6),
    ("ALADGVQKV (listed as Homo sapiens) [APO-001, Apolipoprotein L1 tumour-associated peptide]", 100.9),
]

Now turn to the next sequence.
Task: Given the entry SVASTITGV (listed as Homo sapiens) [ADF-001, Adipophilin tumour-associated peptide] , report its measured in-use stability, peptide by HPLC-assay.
Output: 100.8

---

Assay: HPLC-assay for in-use stability after reconstitution with 4.2% sodium hydrogen carbonate solution (Example 3, peptides SEQ ID NO 11-23)
Assay type: physicochemical
Conditions: +Mannitol/Lutrol; 2h
Ends that are not written are not given here.
Please respond with reported in-use stability, Peptide [%] for every item in the list.
Answers are plain numbers, in %.

# residue_sequence, unit_of_measure, in-use stability, Peptide [%]
measured = [
    ("TFSYVDPVITSISPKYG (listed as Homo sapiens) [MET-005, Met proto-oncogene peptide]", "%", 100.5),
    ("LTFGDVVAV (listed as Homo sapiens) [FABP7-001]", "%", 100.9),
    ("AMTQLLAGV (listed as Homo sapiens) [TNC-001, Tenascin C peptide]", "%", 100.5),
    ("TLGEFLKLDRERAKN (listed as Homo sapiens) [BIR-002, Baculoviral IAP repeat-containing 5 (survivin) peptide]", "%", 100.8),
    ("NLDTLMTYV (listed as Homo sapiens) [NLGN4X-001, Neuroligin 4, X-linked peptide]", "%", 100.8),
    ("SLWAGVVVL [CHI-001]", "%", 100.0),
    ("KVFAGIPTV (listed as Homo sapiens) [PTP-005, Protein tyrosine phosphatase, receptor-type, Z polypeptide 1 peptide]", "%", 100.1),
    ("ALWAWPSEL (listed as Homo sapiens) [BCA-002, Brevican tumour-associated peptide]", "%", 99.8),
    ("AIIDGVESV (listed as Homo sapiens) [PTP-003, Protein tyrosine phosphatase, receptor-type, Z polypeptide 1 peptide]", "%", 100.3),
    ("GLWHHQTEV (listed as Homo sapiens) [NRCAM-001, Neuronal cell adhesion molecule peptide]", "%", 99.9),
]

For each entry beneath this line, provide reported in-use stability, Peptide [%].
1. KIQEILTQV (listed as Homo sapiens) [IGF2BP3-001]
2. TMLARLASA (listed as Homo sapiens) [CSP-001, Chondroitin sulfate proteoglycan 4 peptide]

Output:
100.4
100.0
